The measurements presented in this section are drawn from patent US5891882A.

In Vitro Characterization (pA2) Rat Spleen: recorded values
TARGET_ENTITY: α-1B adrenoreceptor (rat spleen) (Rattus norvegicus)
Construct: from tissue; host or cells: rat spleen
Sequence (P15823 1-515): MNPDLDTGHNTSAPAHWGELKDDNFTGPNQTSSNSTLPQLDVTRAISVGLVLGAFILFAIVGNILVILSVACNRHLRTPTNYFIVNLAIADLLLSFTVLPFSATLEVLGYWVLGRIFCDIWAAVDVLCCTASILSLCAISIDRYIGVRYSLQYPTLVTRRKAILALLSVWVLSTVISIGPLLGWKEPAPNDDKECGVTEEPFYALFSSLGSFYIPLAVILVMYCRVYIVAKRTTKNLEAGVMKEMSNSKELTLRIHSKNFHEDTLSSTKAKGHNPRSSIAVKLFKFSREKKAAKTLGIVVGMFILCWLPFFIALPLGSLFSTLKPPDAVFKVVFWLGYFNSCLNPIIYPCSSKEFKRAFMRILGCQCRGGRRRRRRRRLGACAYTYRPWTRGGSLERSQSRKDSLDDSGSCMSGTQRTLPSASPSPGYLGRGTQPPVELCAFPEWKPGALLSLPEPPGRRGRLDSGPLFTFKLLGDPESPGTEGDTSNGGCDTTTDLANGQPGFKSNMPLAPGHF
EXPERIMENTAL_DETAILS: Functional antagonism: inhibition of phenylephrine-induced contraction of rat spleen
Type: cell-based
RUN_CONDITIONS: rat spleen, phenylephrine-induced contraction, Schild plot
Where a name gives a salt, the structure may show the parent alone.
Give a plain numeric answer without units written out.

Please review the following examples before continuing.
molecule="COc1cccc2c1[C@@H]1CN(CCCCn3c(=O)[nH]c4c(sc5ncc(-c6ccccc6)nc54)c3=O)C[C@H]1CO2 [Example 50, hydrochloride]" target_entity="α-1B adrenoreceptor (rat spleen) (Rattus norvegicus)" reported_measurement=6.5
molecule="COc1cccc2c1[C@@H]1CN(CCCCn3c(=O)[nH]c4c(sc5nc(Cl)ccc54)c3=O)C[C@H]1CO2 [Example 47, hydrochloride]" target_entity="α-1B adrenoreceptor (rat spleen) (Rattus norvegicus)" reported_measurement=7.95

Continue with the next molecule.
In: So what does the record say about In Vitro Characterization (pA2) Rat Spleen for "COc1cccc2c1[C@@H]1CN(CCCCn3c(=O)[nH]c4c(sc5c(Cl)nccc54)c3=O)C[C@@H]1CO2" ?
Out: 7.2
